The origin of these recorded values is paper PMC10107436.

- Assay Notes: in vitro
- Measurement Context: human
Reported Property: CC50

What does the data say about its CC50? Entry: CCC(CC)COC(=O)[C@H](C)N[P@](=O)(OC[C@H]1O[C@@](C#N)(c2ccc3c(N)ncnn23)[C@H](O)[C@@H]1O)Oc1ccccc1 [Remdesivir, reference compound]
> 1 µM
